Tested on: U2OS
Assay: Multiplex assay against U2OS
Assay type: toxicity, cell-based
Conditions: human, 48 h, 10 µM, compound concentration 10 uM, replicate 1
measured_quantity: Population Mitochondria Different-Phenotype (%)

| compound | result |
| --- | --- |
| Nc1ccc(C(=O)Nc2cccc(-c3nc(N4CCOCC4)c4oc5ncccc5c4n3)c2)cn1 | 76% |
| Nc1nc2c(c(N3CCNCC3)n1)CCC1=C2[C@@H]2CCCC[C@@H]2O1 | 76% |
| Cl.Cl.Nc1ncnc2c1c(-c1cccc(OCc3ccccc3)c1)cn2[C@H]1C[C@@H](CN2CCC2)C1 | 100% |
| CNc1oc(-c2cccc3ccccc23)nc1C#N | 12% |
| CCC(=O)O[C@]1(C(=O)SCF)[C@H](C)C[C@H]2[C@@H]3C[C@H](F)C4=CC(=O)C=C[C@]4(C)[C@@]3(F)[C@@H](O)C[C@@]21C [FLUTICASONE PROPIONATE] | 18% |

Recorded Population Mitochondria Different-Phenotype (%) for Cc1cc2c(cc1N1C(=O)c3cccc4c(CCCO)ccc(c34)C1=O)n(C)c(=O)n2C , please?
32%

If you can, please state the reported Population Mitochondria Different-Phenotype (%) value of Cc1nc(Cc2cccc(C(F)(F)F)c2)sc1-c1ccc(C(N)=O)nc1 [TP-024n] .
19%

Entry under review: CCc1cc2c(cc1CC)CC(NC[C@H](O)c1ccc(O)c3[nH]c(=O)ccc13)C2 . Reported Population Mitochondria Different-Phenotype (%)?
96%

====

System: Fibroblast
Test: Multiplex assay against human fibroblast
Format: toxicity, cell-based
Conditions: 24 h, 1 µM, compound concentration 1 uM, replicate 1
Entries annotated with measured Population Membrane Permeable-Phenotype (%)
Write the numeric value and append its unit.

| compound | result |
| --- | --- |
| CC(=O)c1cc(-c2cc(C(=O)NC3CC3)ccc2C)c2ncccn12 | 51% |
| N#Cc1cnc(Nc2cc(NC[C@H]3CNCCO3)c(C(F)(F)F)cn2)cn1 | 7% |
| COc1ccc(NS(=O)(=O)c2sc3ccc(Cl)cc3c2C)cc1N1CCNCC1.Cl | 25% |
| CN(C)CCOc1ccc(-c2nc(-c3ccncc3)c(-c3ccc4c(c3)CC/C4=N\O)[nH]2)cc1 | 1% |
| COc1cc2c(NC3CCN(C(C)C)CC3)nc(N3CCC(F)(F)CC3)nc2cc1OCCCN1CCCC1 | 15% |
| CCOc1cc2ncc(C#N)c(Nc3ccc(OCc4cccc(F)c4)c(Cl)c3)c2cc1NC(=O)/C=C/CN(C)C | 6% |
| CCOc1cc(N2CCC(O)CC2)ccc1Nc1ncc2c(n1)N(C1CCCC1)CCC(=O)N2C | 6% |
| CCn1c(-c2nonc2N)nc2cnc(Oc3cccc(NC(=O)c4ccc(OCCN5CCOCC5)cc4)c3)cc21 [GSK-269962A] | 19% |
| c1ccc2oc(-c3csc(C4CCN(Cc5nc6ncccc6[nH]5)CC4)n3)cc2c1 | 10% |
| CCCn1c(=O)c2[nH]c(C34CC5CC(CC3C5)C4)nc2n(CCC)c1=O | 39% |

Any idea what its Population Membrane Permeable-Phenotype (%) is? The compound is COc1cc2c(Nc3ccc(NC(=O)c4ccccc4)cc3)ncnc2cc1OCCCN1CCOCC1
14%

So what does the record say about Population Membrane Permeable-Phenotype (%) for CNC(=O)c1cc(Oc2ccc(NC(=O)Nc3cc(C(C)(C)C)nn3-c3ccc4ncccc4c3)c(F)c2)ccn1 ?
2%

Could you share which Population Membrane Permeable-Phenotype (%) value was measured for CC(C)(C)c1cnc(CSc2cnc(NC(=O)C3CCNCC3)s2)o1 ?
6%

Quick one: Population Membrane Permeable-Phenotype (%) for Cl.Cl.NC1(c2ccc(-c3nc4ccn5c(=O)[nH]nc5c4cc3-c3ccccc3)cc2)CCC1 ?
1%

Any idea what its Population Membrane Permeable-Phenotype (%) is? The compound is O=C(O)c1ccc2cc(-c3ccc(O)c(C45CC6CC(CC(C6)C4)C5)c3)ccc2c1
29%

Population Membrane Permeable-Phenotype (%) lookup needed for Nc1nc2c(c(N3CCNCC3)n1)CCC1=C2[C@@H]2CCCC[C@@H]2O1 , thanks.
21%

May I ask what Population Membrane Permeable-Phenotype (%) has been recorded for Cc1nc(Cc2cccc(C(F)(F)F)c2)sc1-c1ccc(C(N)=O)nc1 [TP-024n] ?
31%

For CCc1cc2c(cc1CC)CC(NC[C@H](O)c1ccc(O)c3[nH]c(=O)ccc13)C2 , what is its reported Population Membrane Permeable-Phenotype (%)?
18%
